Test: DRUGMATRIX: GABAA, Muscimol, Central radioligand binding (ligand: [3H] Muscimol)
Type: cell membranes, Rattus norvegicus, Wistar, Brain, Membrane
Details: Not Active = under 50% inhibition at 10 µM

{"molecule": "CCN(CC)CCNC(=O)c1ccc(N)cc1 [PROCAINAMIDE]", "IC50": "Not Active"}
{"molecule": "CN1CCN(CCCN2c3ccccc3Sc3ccc(C(F)(F)F)cc32)CC1 [TRIFLUOPERAZINE]", "IC50": "Not Active"}
{"molecule": "C[C@H]1O[C@H](O[C@H]2[C@H](O)[C@@H](O)[C@@H](O[C@H]3[C@H](O)[C@@H](O)C(O)O[C@@H]3CO)O[C@@H]2CO)[C@H](O)[C@@H](O)[C@@H]1N[C@H]1C=C(CO)[C@@H](O)[C@H](O)[C@H]1O (stereo partly drawn) [ACARBOSE]", "IC50": "Not Active"}
{"molecule": "C[C@]12CC[C@@H]3c4ccc(O)cc4CC[C@H]3[C@@H]1C[C@@H](O)[C@@H]2O [ESTRIOL]", "IC50": "Not Active"}
{"molecule": "CN(C)C(=N)NC(=N)N [METFORMIN]", "IC50": "Not Active"}
{"molecule": "CC[C@]1(O)C[C@@H]2CN(CCc3c([nH]c4ccccc34)[C@@](C(=O)OC)(c3cc4c(cc3OC)N(C)[C@H]3[C@@](O)(C(N)=O)[C@H](O)[C@]5(CC)C=CCN6CC[C@]43[C@@H]65)C2)C1 [VINDESINE]", "IC50": "Not Active"}
{"molecule": "NC(=O)c1cccnc1 [NIACINAMIDE]", "IC50": "Not Active"}
{"molecule": "CN1C[C@@H]2C[C@H]1CN2c1cc2c(cc1F)c(=O)c(C(=O)O)cn2C1CC1 [DANOFLOXACIN]", "IC50": "Not Active"}

----------
Target: Beta-2 adrenergic receptor (Homo sapiens, UniProt P07550)
Sequence (P07550 whole entry): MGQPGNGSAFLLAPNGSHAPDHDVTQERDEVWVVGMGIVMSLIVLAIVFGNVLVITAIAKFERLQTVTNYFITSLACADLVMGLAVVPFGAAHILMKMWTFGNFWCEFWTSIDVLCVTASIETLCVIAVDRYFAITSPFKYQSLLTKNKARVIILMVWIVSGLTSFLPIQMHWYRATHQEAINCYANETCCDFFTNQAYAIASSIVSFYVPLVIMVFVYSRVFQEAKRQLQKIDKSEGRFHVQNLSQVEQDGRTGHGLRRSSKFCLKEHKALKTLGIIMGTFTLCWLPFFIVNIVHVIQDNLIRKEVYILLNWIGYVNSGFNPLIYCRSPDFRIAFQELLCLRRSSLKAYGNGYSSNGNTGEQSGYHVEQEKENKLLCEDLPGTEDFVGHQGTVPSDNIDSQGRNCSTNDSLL
Test: DRUGMATRIX: Adrenergic beta2 radioligand binding (ligand: [3H] CGP-12177)
Type: cell membranes, CHO, Membrane
Settings: Not Active = under 50% inhibition at 10 µM; read-out: IC50
pIC50: −log10 of the molar value.

{"compound": "CC(C)NCC(O)c1ccccc1Cl (configuration not stated) [CLORPRENALINE]", "target": "Beta-2 adrenergic receptor (Homo sapiens, UniProt P07550)", "pIC50": 5.70}
{"compound": "CN(C)C(=O)C(CCN1CCC(O)(c2ccc(Cl)cc2)CC1)(c1ccccc1)c1ccccc1 [LOPERAMIDE]", "target": "Beta-2 adrenergic receptor (Homo sapiens, UniProt P07550)", "pIC50": 5.52}

----------
Molecular target: Endothelin-1 receptor (Homo sapiens); note: in other assays of this panel Not Active means under 50% inhibition at 10 µM
Sequence (P25101 whole entry): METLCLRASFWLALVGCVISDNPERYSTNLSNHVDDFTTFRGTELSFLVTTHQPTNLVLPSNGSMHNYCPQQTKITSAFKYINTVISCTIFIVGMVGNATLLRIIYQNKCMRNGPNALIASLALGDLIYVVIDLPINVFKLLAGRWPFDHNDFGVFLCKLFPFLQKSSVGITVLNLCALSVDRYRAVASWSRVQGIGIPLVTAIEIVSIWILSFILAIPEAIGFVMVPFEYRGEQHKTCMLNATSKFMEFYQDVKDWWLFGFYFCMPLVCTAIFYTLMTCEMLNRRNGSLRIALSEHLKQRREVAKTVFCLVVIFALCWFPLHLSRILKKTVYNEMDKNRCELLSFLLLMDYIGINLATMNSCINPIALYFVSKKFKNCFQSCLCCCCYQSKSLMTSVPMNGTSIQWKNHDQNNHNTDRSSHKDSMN
Format: cell membranes, Membrane
Conditions: cho-k1
measuredProperty: IC50

{"substance": "COBALTOUS CHLORIDE", "measuredProperty": "IC50", "valueReported": "Not Active"}
{"substance": "TRANSPLATIN", "measuredProperty": "IC50", "valueReported": "Not Active"}
{"substance": "ZIRCONIUM(IV) CHLORIDE", "measuredProperty": "IC50", "valueReported": "Not Active"}
{"substance": "COLISTIN", "measuredProperty": "IC50", "valueReported": "Not Active"}

Sourced from ChEMBL document CHEMBL1909046
